target-system: T1, 6His-AviTag-linked cynomolgus monkey IL-33 (residues 112 to 269) (cynomolgus monkey, UniProt O95760 112-269 (human entry), biotin on the AviTag portion (BirA) in the SPR of Example 7; used without biotinylation in Example 10)
T1 construct: GenBank EHH57404 printed; also called cynomolgus monkey IL-33 protein; mature cynomolgus monkey IL-33
T1 chain: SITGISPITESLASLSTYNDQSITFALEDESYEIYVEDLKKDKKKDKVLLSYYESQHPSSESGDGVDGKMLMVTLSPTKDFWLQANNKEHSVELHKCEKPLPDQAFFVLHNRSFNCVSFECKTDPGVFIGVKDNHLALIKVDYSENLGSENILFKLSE
assay-info: SPR, IL-33 on chip, Fab supernatant as analyte
Experimental: The library after the enrichment was used to construct a library of Escherichia coli secreting and expressing Fab. […] The sensorgram was subjected to interspot correction and blank correction using an SPR data analysis program (ProteOn Manager v3.1.0, available from Bio-Rad Laboratories, Inc.), and then values of koff were determined by off-rate analysis of Langmuir model.
endpoint-label: koff (s⁻¹)
Could you give me the number in s⁻¹? Just the number is fine.

>  <binder>
A12-1H08 (Fab) (Fab, V domains shown, Fab secreted by E. coli, tested as culture supernatant; also called V4) VH: EVQLLESGGGLVQPGGSLRLSCAASGFTFSDYYMDWVRQAPGKGLEWVSSISRASSYVYYADSVKGRFTISRDNSKNTLYLQMNSLRAEDTAVYYCARDIGGMDVWGQGTLVTVSS VL: QSVLTQPPSASGTPGQRVTISCTGSSSNIGAVYNVHWYQQLPGTAPKLLIYRNNQRPSGVPDRFSGSKSGTSASLAISGLRSEDEADYYCQSYDSSRWVFGGGTKLTVL

>  <unit-info>
s⁻¹

>  <koff>
7.51e-05

$$$$

INPUT: # lookup: koff of A28-1C08 (Fab) (Fab, V domains shown, Fab secreted by E. coli, tested as culture supernatant; also called V23) VH: EVQLLESGGGLVQPGGSLRLSCAASGFTFSRYYMHWVRQAPGKGLEWVSSISARSSYIYYADSVKGRFTISRDNSKNTLYLQMNSLRAEDTAVYYCARLATRRDAFDIWGQGTLVTVSS VL: QSVLTQPPSASGTPGQRVTISCSGSSSNIGRNAVSWYQQLPGTAPKLLIYASNMRRLGVPDRFSGSKSGTSASLAISGLRSEDEADYYCWAWDDSQKAVVFGGGTKLTVL
OUTPUT: 1e-05

Numbers sourced from patent US20240002495A1.
